Tested on: Human recombinant Acetyl-CoA Carboxylase 1 (ACC1) (Homo sapiens)
Method description: Assay X: ACC1 inhibition, inorganic phosphate (malachite green)
Assay type: biochemical
Run parameters: Assay X: 37° C., 1.5 h, 5 min pre-incubation
pIC50: −log10 of the molar value.
# pIC50 per record follows
Property measured: pIC50

- Compound: "CC(C)(C)OC(=O)NC[C@H]1CC[C@H](CNC(=O)c2cc(N3CCC(CCN4CC(N)C4)CC3)nc3ccccc23)CC1"
  Experimental result: 6.26
- Compound: "CC(O)C(C)Oc1ccc(-c2cc(C(=O)NC[C@H]3CC[C@H](CNC(=O)OC(C)(C)C)CC3)c3ccccc3n2)cn1 (relative stereo)"
  Experimental result: 5.52
- Compound: "CC(C)(C)OC(=O)NC[C@H]1CC[C@H](CNC(=O)c2cc(-c3ccc(N4CCNCC4)nc3)nc3ccccc23)CC1"
  Experimental result: 6.72
- Compound: "O=C(NC[C@H]1CC[C@H](CNC(=O)c2cc(-c3ccc(N4CC[C@@H](O)C4)nc3)nc3ccccc23)CC1)OC1CCOCC1"
  Experimental result: 5.96
- Compound: "Cc1nc(CNc2ccc(-c3cc(C(=O)NC[C@H]4CC[C@H](CNC(=O)OC(C)(C)C)CC4)c4ccccc4n3)cn2)no1"
  Experimental result: 5.92
- Compound: "CN1CCN(c2ccc(-c3cc(C(=O)NC[C@H]4CC[C@H](CNC(=O)OCc5nccs5)CC4)c4ccccc4n3)cn2)CC1"
  Experimental result: 5.71
- Compound: "CN1CCN(C2CCN(c3cc(C(=O)NC[C@H]4CC[C@H](CNC(=O)OC(C)(C)C)CC4)c4ccccc4n3)CC2)CC1"
  Experimental result: 5.48
- Compound: "CN(C)CCN1CCN(c2cc(C(=O)NC[C@H]3CC[C@H](CNC(=O)OC(C)(C)C)CC3)c3ccccc3n2)CC1=O"
  Experimental result: 5.34
- Compound: "CC(C)(C)OC(=O)NC[C@H]1CC[C@H](CNC(=O)c2cc(N3CCC(CCNC4CCOCC4)CC3)nc3ccccc23)CC1"
  Experimental result: 5.82
- Compound: "CN(C)CCNc1ccc(-c2cc(C(=O)NC[C@H]3CC[C@H](CNC(=O)OC4CCOCC4)CC3)c3ccccc3n2)cn1"
  Experimental result: 5.85
- Compound: "CC(C)(C)OC(=O)NC[C@H]1CC[C@H](CNC(=O)c2cc(N3CCC(CC(O)CN4CCOCC4)CC3)nc3ccccc23)CC1 (relative stereo) [Example 207]"
  Experimental result: 5.98
- Compound: "CC[C@H](Nc1ccc(-c2cc(C(=O)NC[C@H]3CC[C@H](CNC(=O)OC(C)(C)C)CC3)c3ccccc3n2)cn1)C(N)=O"
  Experimental result: 5.86
- Compound: "CN1CCC(C2CCN(c3cc(C(=O)NC[C@H]4CC[C@H](CNC(=O)OC(C)(C)C)CC4)c4ccccc4n3)CC2)CC1"
  Experimental result: 6.02

###

Tested on: Human recombinant Acetyl-CoA Carboxylase 1 (ACC1) (Homo sapiens)
Method description: Assay Y: ACC1 inhibition, inorganic phosphate (Malachite Green)
Type: biochemical
Run parameters: Assay Y: room temperature, 3 hr, 15 min preincubation
Protocol: Preincubation of 6 μL enzyme together with 0.3 μL compound for 15 min was done before the reaction was initiated by the addition of 4 μL substrate. […] After 3 hr the reaction was stopped by addition of 60 μL of water followed by 30 μL Malachite Green solution. […] Plates were left for 10 min at room temperature before reading the absorbance at 670 nm. […]
pIC50: −log10 of the molar value.
Quick reference: pIC50 of the listed items.
Property measured: pIC50

- Compound: "CCOC(=O)NC[C@H]1CC[C@H](CNC(=O)c2cc(-c3ccc(F)cc3)nc3ccccc23)CC1 [Example 17]"
  Property measured: "pIC50"
  Relation: "<"
  Experimental result: 4.70
- Compound: "CC(C)(C)OC(=O)NC[C@H]1CC[C@H](CNC(=O)c2cc(-c3cccc(CNS(C)(=O)=O)c3)nc3ccccc23)CC1 [Example 98]"
  Property measured: "pIC50"
  Relation: "="
  Experimental result: 5.86
- Compound: "CCOC(=O)NC[C@H]1CC[C@H](CNC(=O)c2cc(-c3ccc(C(N)=O)cc3)nc3ccccc23)CC1 [Example 61]"
  Property measured: "pIC50"
  Relation: "="
  Experimental result: 6.00
- Compound: "COC[C@@H](C)OC(=O)NC[C@H]1CC[C@H](CNC(=O)c2cc(-c3ccc(N4CCN(C)CC4)nc3)nc3ccccc23)CC1 (stereo in doubt) [Example 113]"
  Property measured: "pIC50"
  Relation: "="
  Experimental result: 5.11
- Compound: "CCCCN(C[C@H]1CC[C@H](CNC(=O)OC(C)(C)C)CC1)S(=O)(=O)c1ccc2ccccc2c1 [Example 85]"
  Property measured: "pIC50"
  Relation: "<"
  Experimental result: 4.70
- Compound: "CC(C)c1ccc(S(=O)(=O)NC[C@H]2CC[C@H](CNC(=O)OC(C)(C)C)CC2)cc1 [Example 68]"
  Property measured: "pIC50"
  Relation: "<"
  Experimental result: 4.70
- Compound: "C[C@@H](CO)OC(=O)NC[C@H]1CC[C@H](CNC(=O)c2cc(-c3ccc(N4CCN(C)CC4)nc3)nc3ccccc23)CC1 [Example 133]"
  Property measured: "pIC50"
  Relation: "="
  Experimental result: 5.60
- Compound: "CC(C)(C)OC(=O)NC[C@H]1CC[C@H](CNC(=O)c2cc(-c3ccc(CN)cc3)nc3ccccc23)CC1 [Example 92, acetate]"
  Property measured: "pIC50"
  Relation: "="
  Experimental result: 6.59
- Compound: "CC(C)(C)OC(=O)NC[C@H]1CC[C@H](CNC(=O)c2cc(-c3ccc(CC(=O)O)cc3)nc3ccccc23)CC1 [Example 107]"
  Property measured: "pIC50"
  Relation: "="
  Experimental result: 5.58
- Compound: "CC(C)(C)OC(=O)NC[C@H]1CC[C@H](CNS(=O)(=O)c2ccc(-c3ccno3)s2)CC1 [Example 72]"
  Property measured: "pIC50"
  Relation: "<"
  Experimental result: 4.70
- Compound: "CC(C)(C)OC(=O)NC[C@H]1CC[C@H](CNC(=O)c2cc(-c3ccc(CCN)cc3)nc3ccccc23)CC1 [Example 102]"
  Property measured: "pIC50"
  Relation: "="
  Experimental result: 6.77
- Compound: "CC(C)(C)OC(=O)NC[C@H]1CC[C@H](CNC(=O)c2cc(-c3ccc(N4CCCC4)nc3)nc3ccccc23)CC1 [Example 144]"
  Property measured: "pIC50"
  Relation: "="
  Experimental result: 5.40
- Compound: "CC(C)(C)OC(=O)NC[C@H]1CC[C@H](CNS(=O)(=O)c2cccc(-c3ccccc3)c2)CC1 [Example 63]"
  Property measured: "pIC50"
  Relation: "="
  Experimental result: 5.34
- Compound: "COc1ccc(-c2cc(C(=O)NC[C@H]3CC[C@H](CNC(=O)OC(C)(C)C)CC3)ccn2)c(OC)n1 [Example 48]"
  Property measured: "pIC50"
  Relation: "<"
  Experimental result: 4.70
- Compound: "CN1CCN(c2ccc(-c3cc(C(=O)NC[C@H]4CC[C@H](CNC(=O)OCC5CCO5)CC4)c4ccccc4n3)cn2)CC1 (relative stereo) [Example 111]"
  Property measured: "pIC50"
  Relation: "="
  Experimental result: 5.50
- Compound: "CC(C)(C)OC(=O)NC[C@H]1CC[C@H](CNC(=O)c2cc(-c3ccccc3)nc3ccccc23)CC1 [Example 6]"
  Property measured: "pIC50"
  Relation: "="
  Experimental result: 6.25
- Compound: "CC(C)(C)OC(=O)NC[C@H]1CC[C@H](CNS(=O)(=O)c2cccc3cccnc23)CC1 [Example 66]"
  Property measured: "pIC50"
  Relation: "="
  Experimental result: 5.17
- Compound: "Cc1nc(-c2ccc(S(=O)(=O)N(C)C[C@H]3CC[C@H](CNC(=O)OC(C)(C)C)CC3)s2)cs1 [Example 89]"
  Property measured: "pIC50"
  Relation: "<"
  Experimental result: 4.70
- Compound: "CC(C)(C)OC(=O)NC[C@H]1CC[C@H](CNC(=O)c2cc(N3CCC(O)CC3)nc3ccccc23)CC1 [Example 187]"
  Property measured: "pIC50"
  Relation: "="
  Experimental result: 5.07
- Compound: "CN1CCN(c2ccc(-c3cc(C(=O)NC[C@H]4CC[C@H](CNC(=O)O[C@H]5CCOC5)CC4)c4ccccc4n3)cn2)CC1 [Example 116]"
  Property measured: "pIC50"
  Relation: "="
  Experimental result: 5.90
- Compound: "CC(C)(C)OC(=O)NC[C@H]1CC[C@H](CNC(=O)c2ccnc(-c3ccc(F)c(F)c3)c2)CC1 [Example 53]"
  Property measured: "pIC50"
  Relation: "<"
  Experimental result: 4.70
- Compound: "CC(C)OC(=O)NC[C@H]1CC[C@H](CNC(=O)c2cc(-c3ccncc3)nc3ccccc23)CC1 [Example 57]"
  Property measured: "pIC50"
  Relation: "="
  Experimental result: 5.72
- Compound: "CC(C)(C)OC(=O)NC[C@H]1CC[C@H](CNC(=O)c2cc(-c3ccc(C#N)cc3)nc3ccccc23)CC1 [Example 34]"
  Property measured: "pIC50"
  Relation: "="
  Experimental result: 5.93
- Compound: "CN(C)CCN1CCN(c2cc(C(=O)NC[C@H]3CC[C@H](CNC(=O)OC(C)(C)C)CC3)c3ccccc3n2)CC1 [Example 186]"
  Property measured: "pIC50"
  Relation: "="
  Experimental result: 5.65
- Compound: "CC(C)(C)OC(=O)NC[C@H]1CC[C@H](CNC(=O)c2ccnc(-c3cc4ccccc4s3)c2)CC1 [Example 45]"
  Property measured: "pIC50"
  Relation: "<"
  Experimental result: 4.70
- Compound: "CC(C)(C)OC(=O)NC[C@H]1CC[C@H](CNS(=O)(=O)c2cc(-c3ccccc3)nc3ccccc23)CC1 [Example 95]"
  Property measured: "pIC50"
  Relation: "="
  Experimental result: 5.67
- Compound: "NS(=O)(=O)c1ccc(-c2cc(C(=O)NC[C@H]3CC[C@H](CNC(=O)OC4CCOCC4)CC3)c3ccccc3n2)cc1 [Example 138]"
  Property measured: "pIC50"
  Relation: "="
  Experimental result: 5.42
- Compound: "CC(C)(C)OC(=O)NC[C@H]1CC[C@H](CN(CC(F)(F)F)S(=O)(=O)c2ccc3ccccc3c2)CC1 [Example 86]"
  Property measured: "pIC50"
  Relation: "<"
  Experimental result: 4.70
